biological target: Epidermal growth factor receptor (Homo sapiens, UniProt P00533, L858R); assay: Inhibition of EGFR kinase L858R mutant (unknown origin) after 1.5 hrs by FRET-based Z'-Lyte assay
Sequence (P00533 25-1210 L858R limits assumed): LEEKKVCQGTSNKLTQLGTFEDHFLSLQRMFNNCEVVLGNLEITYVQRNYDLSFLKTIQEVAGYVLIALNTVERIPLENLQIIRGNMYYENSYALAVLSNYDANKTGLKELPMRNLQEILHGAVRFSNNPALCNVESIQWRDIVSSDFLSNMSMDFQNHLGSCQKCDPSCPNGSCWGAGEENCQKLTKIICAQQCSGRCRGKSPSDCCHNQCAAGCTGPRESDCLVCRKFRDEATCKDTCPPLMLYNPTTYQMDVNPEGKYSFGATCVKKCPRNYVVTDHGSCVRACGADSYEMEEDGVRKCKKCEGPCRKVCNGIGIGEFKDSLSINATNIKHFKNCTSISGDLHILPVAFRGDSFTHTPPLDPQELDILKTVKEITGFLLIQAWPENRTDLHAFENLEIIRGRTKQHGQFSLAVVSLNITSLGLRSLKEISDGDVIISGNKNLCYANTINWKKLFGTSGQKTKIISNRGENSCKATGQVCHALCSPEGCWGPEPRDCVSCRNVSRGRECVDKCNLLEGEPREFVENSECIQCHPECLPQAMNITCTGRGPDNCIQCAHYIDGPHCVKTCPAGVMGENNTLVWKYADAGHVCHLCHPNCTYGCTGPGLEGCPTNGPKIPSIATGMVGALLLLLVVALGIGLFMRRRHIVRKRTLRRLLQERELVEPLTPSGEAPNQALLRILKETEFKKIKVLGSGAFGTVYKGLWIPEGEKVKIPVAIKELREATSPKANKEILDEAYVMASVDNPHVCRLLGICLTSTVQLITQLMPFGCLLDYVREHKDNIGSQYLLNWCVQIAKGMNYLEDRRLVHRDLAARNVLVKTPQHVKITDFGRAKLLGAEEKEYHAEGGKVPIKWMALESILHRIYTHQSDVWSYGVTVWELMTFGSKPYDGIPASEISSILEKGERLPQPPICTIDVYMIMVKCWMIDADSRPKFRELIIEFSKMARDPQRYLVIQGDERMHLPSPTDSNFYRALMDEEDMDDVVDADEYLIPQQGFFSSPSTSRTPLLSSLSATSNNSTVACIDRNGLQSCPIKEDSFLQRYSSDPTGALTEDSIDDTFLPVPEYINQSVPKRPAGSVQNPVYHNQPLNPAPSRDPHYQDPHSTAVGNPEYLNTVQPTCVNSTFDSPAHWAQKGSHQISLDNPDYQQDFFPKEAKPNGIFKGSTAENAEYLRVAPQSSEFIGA
pIC50: −log10 of the molar value.
value_type: pIC50

[
  {
    "compound": "C=CC(=O)Nc1cccc(N2C(=O)C(Cc3ccc(OC)cc3)N(C)C(=O)c3cnc(Nc4ccc(N5CCN(C)CC5)cc4OC)nc32)c1 (stereo not given)",
    "value_type": "pIC50",
    "observed_measurement": 7.30
  },
  {
    "compound": "C=CC(=O)Nc1cccc(N2C(=O)C(C(C)CC)N(C)C(=O)c3cnc(Nc4ccc(N5CCN(C)CC5)cc4OC)nc32)c1 (stereo not given)",
    "value_type": "pIC50",
    "observed_measurement": 7.88
  },
  {
    "compound": "C=CC(=O)Nc1cccc(N2C(=O)C3CCCCN3C(=O)c3cnc(Nc4ccc(N5CCN(C)CC5)cc4OC)nc32)c1 (stereo not given)",
    "value_type": "pIC50",
    "observed_measurement": 8.37
  }
]

P: C=CC(=O)Nc1cccc(N2C(=O)C(C(C)C)N(C)C(=O)c3cnc(Nc4ccc(N5CCN(C)CC5)cc4OC)nc32)c1 (stereo not given)
Q: C=CC(=O)Nc1cccc(N2C(=O)C(Cc3ccc(F)cc3)N(C)C(=O)c3cnc(Nc4ccc(N5CCN(C)CC5)cc4OC)nc32)c1 (stereo not given)
Exercise: Input pair: P , Q . Output: entry with lower pIC50. Lab log: write the label of the selected item as the result.
Solution: P

---

target: Epidermal growth factor receptor (Homo sapiens, UniProt P00533)
Sequence (P00533 whole entry): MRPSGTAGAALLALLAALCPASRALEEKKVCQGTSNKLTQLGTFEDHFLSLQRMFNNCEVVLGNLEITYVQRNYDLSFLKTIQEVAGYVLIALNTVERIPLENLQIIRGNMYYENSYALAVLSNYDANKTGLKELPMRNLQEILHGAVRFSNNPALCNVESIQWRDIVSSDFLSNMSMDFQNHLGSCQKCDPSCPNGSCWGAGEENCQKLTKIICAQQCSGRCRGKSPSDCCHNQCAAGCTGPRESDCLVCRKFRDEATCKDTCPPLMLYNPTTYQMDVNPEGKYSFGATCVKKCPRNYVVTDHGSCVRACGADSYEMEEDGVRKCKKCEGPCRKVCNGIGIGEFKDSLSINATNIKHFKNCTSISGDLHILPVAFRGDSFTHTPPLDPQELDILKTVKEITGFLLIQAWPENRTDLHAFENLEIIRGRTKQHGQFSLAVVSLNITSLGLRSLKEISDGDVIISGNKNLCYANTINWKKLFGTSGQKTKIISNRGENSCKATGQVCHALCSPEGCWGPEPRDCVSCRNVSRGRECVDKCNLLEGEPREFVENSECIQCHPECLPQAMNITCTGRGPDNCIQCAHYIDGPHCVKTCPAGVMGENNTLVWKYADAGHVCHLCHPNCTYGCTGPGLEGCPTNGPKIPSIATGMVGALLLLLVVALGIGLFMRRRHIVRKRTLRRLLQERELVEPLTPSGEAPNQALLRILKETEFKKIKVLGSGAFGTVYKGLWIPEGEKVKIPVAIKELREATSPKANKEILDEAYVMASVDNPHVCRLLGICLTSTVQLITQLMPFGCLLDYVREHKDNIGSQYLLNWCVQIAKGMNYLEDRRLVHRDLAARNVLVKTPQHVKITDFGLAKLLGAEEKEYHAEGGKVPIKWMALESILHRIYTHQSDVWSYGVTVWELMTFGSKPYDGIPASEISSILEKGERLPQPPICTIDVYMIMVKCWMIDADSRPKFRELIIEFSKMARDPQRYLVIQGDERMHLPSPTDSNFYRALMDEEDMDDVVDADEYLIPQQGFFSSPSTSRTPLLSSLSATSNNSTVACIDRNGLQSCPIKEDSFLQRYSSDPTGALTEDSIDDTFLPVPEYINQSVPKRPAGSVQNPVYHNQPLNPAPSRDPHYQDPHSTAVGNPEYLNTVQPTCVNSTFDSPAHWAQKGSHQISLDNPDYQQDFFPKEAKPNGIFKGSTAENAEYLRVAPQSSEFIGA
value_type: IC50 (nM)

Record excerpt, results attached:
[
  {
    "molecule": "C=CC(=O)Nc1cccc(N2C(=O)C(C(C)CC)N(C)C(=O)c3cnc(Nc4ccc(N5CCN(C)CC5)cc4OC)nc32)c1 (stereo unspecified)",
    "IC50 / nM": 10.2
  },
  {
    "molecule": "C=CC(=O)Nc1cccc(N2C(=O)C(C)N(C)C(=O)c3cnc(Nc4ccc(N5CCN(C)CC5)cc4OC)nc32)c1 (stereo unspecified)",
    "IC50 / nM": 22.1
  },
  {
    "molecule": "C=CC(=O)Nc1cccc(N2C(=O)C3CCCCN3C(=O)c3cnc(Nc4ccc(N5CCN(C)CC5)cc4OC)nc32)c1 (stereo unspecified)",
    "IC50 / nM": 2.45
  }
]

1: C=CC(=O)Nc1cccc(N2C(=O)C(c3ccccc3)N(C)C(=O)c3cnc(Nc4ccc(N5CCN(C)CC5)cc4OC)nc32)c1 (stereo unspecified)
2: C=CC(=O)Nc1cccc(N2C(=O)C(C(C)C)N(C)C(=O)c3cnc(Nc4ccc(N5CCN(C)CC5)cc4OC)nc32)c1 (stereo unspecified)
3: C=CC(=O)Nc1cccc(N2C(=O)CN(Cc3ccccc3)C(=O)c3cnc(Nc4ccc(N5CCN(C)CC5)cc4OC)nc32)c1
Exercise: Hey, quick one: sort these by IC50, low to high? Answer by listing the labels in the order asked for.
Solution: 3, 2, 1
(3: 6.26 nM, 2: 24.8 nM, 1: 77.2 nM)

---

molecular target: Epidermal growth factor receptor (Homo sapiens, UniProt P00533, L858R); experiment: Inhibition of EGFR kinase L858R mutant (unknown origin) after 1.5 hrs by FRET-based Z'-Lyte assay
pIC50: −log10 of the molar value.
value_type: pIC50

[
  {
    "molecule": "C=CC(=O)Nc1cccc(N2C(=O)CN(c3ccccc3)C(=O)c3cnc(Nc4ccc(N5CCN(C)CC5)cc4OC)nc32)c1",
    "pIC50": 7.51
  },
  {
    "molecule": "C=CC(=O)Nc1cccc(N2C(=O)CN(Cc3ccccc3)C(=O)c3cnc(Nc4ccc(N5CCN(C)CC5)cc4OC)nc32)c1",
    "pIC50": 8.04
  }
]

1: C=CC(=O)Nc1cccc(N2C(=O)CN(C)C(=O)c3cnc(Nc4ccc(N5CCN(C)CC5)cc4OC)nc32)c1
2: C=CC(=O)Nc1cccc(N2C(=O)C(Cc3ccccc3)N(C)C(=O)c3cnc(Nc4ccc(N5CCN(C)CC5)cc4OC)nc32)c1 (configuration not stated)
3: C=CC(=O)Nc1cccc(N2C(=O)C(C)N(C)C(=O)c3cnc(Nc4ccc(N5CCN(C)CC5)cc4OC)nc32)c1 (configuration not stated)
4: C=CC(=O)Nc1cccc(N2C(=O)C(c3ccccc3)N(C)C(=O)c3cnc(Nc4ccc(N5CCN(C)CC5)cc4OC)nc32)c1 (configuration not stated)
Exercise: Sort by pIC50, descending. // format: requested-order list of labels
Solution: 2, 1, 3, 4
(2: 8.08, 1: 7.82, 3: 7.38, 4: 6.76)

Data origin, for the record: ChEMBL document CHEMBL3217539
